Every entry's value here was drawn from patent US20230212202A1.

- Test system: LN229 human brain glioblastoma cells MGMT+ MMR+
- method_summary: Anticancer activity towards LN229 cells (Example 15)
- Format: cell-based
- setup_conditions: Homo sapiens, LN-229, 120 h, read-out: MGMT+ MMR+ Activity
pIC50: −log10 of the molar value.
parameter: pIC50

Return reported pIC50; argument: O=NN(CCF)C(=O)NCCCl < 4.05

* * *

- System: LN229 human brain glioblastoma cells MGMT- MMR+
- method_summary: Anticancer activity towards LN229 cells (Example 15)
- Type: cell-based
- setup_conditions: Homo sapiens, LN-229, 120 h, read-out: MGMT -MMR + Activity
pIC50: −log10 of the molar value.
parameter: pIC50

// query pIC50 value for entry O=NN(CCF)C(=O)NCCCl 4.05 to 4.30
